Give measured IC50 for each item. Keep answers brief.
tested_target: PI3K β (p110β/p85α) (Homo sapiens)
Construct: purchased Upstate / Millipore Corporation
Sequence (P42338 whole entry): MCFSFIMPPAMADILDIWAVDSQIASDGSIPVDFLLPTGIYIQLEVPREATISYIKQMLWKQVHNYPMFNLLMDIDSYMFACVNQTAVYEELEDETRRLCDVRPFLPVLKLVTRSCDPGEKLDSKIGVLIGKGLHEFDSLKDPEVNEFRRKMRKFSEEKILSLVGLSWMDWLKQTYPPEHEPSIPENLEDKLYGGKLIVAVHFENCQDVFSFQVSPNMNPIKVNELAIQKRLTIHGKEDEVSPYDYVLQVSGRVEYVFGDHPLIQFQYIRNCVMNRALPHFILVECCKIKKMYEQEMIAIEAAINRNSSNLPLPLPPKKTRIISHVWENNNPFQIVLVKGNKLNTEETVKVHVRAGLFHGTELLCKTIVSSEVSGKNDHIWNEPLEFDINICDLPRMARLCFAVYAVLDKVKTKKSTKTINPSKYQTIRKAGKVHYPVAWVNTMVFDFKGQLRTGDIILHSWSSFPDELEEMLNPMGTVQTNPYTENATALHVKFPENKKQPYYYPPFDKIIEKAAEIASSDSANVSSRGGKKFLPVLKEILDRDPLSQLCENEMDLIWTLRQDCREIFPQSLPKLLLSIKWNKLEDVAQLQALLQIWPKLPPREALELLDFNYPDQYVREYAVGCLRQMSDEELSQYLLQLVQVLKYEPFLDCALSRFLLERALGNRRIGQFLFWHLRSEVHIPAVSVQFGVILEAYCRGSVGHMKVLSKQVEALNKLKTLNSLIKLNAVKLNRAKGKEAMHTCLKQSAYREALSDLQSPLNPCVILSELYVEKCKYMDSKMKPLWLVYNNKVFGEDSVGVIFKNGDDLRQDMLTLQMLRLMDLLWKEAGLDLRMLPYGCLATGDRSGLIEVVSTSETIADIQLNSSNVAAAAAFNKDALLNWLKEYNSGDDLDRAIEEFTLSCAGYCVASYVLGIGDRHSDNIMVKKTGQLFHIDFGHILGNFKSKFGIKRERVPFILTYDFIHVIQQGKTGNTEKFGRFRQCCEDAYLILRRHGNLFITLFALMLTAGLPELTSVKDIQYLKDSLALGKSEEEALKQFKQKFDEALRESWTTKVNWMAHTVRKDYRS
Sequence (P27986 whole entry partner): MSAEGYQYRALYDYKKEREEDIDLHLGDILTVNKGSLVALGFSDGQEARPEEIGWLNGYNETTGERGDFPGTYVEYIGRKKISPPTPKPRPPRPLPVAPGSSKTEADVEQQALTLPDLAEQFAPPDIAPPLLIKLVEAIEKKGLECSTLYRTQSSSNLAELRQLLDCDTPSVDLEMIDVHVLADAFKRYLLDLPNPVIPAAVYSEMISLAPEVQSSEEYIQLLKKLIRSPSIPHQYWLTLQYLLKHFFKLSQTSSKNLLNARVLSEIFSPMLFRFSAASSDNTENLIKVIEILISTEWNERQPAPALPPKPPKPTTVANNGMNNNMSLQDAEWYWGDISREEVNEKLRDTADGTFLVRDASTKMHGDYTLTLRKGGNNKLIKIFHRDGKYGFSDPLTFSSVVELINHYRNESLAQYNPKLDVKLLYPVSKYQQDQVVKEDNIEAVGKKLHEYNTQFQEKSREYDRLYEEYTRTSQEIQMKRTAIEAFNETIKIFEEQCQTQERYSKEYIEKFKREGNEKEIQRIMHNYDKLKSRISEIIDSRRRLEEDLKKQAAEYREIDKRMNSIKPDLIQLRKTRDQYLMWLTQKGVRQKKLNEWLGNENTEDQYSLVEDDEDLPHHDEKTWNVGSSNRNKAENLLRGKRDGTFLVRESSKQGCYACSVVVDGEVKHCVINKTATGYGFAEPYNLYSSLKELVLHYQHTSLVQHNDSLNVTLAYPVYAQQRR
protocol_summary: PI 3-Kinase (human) HTRF assay, PI3K β
Format: biochemical
test_context: read-out: PI3K β IC50

Nc1nc2cc(-c3c[nH]c4nccc(-c5ccncc5)c34)ccc2o1 has a reported IC50 of > 10 µM

Nc1nc2cc(-c3ccc4nnc(C(=O)N5CCOCC5)n4c3)ccc2o1 has a reported IC50 of > 10 µM

Nc1nc2cc(-c3ccc4ncc(N5CCC(n6cccn6)CC5)nc4c3)ccc2o1 has a reported IC50 of > 10 µM

Nc1ncc(-c2cnc3ccc(-c4ccc5oc(N)nc5c4)cc3n2)cn1 has a reported IC50 of > 10 µM

Nc1nc2cc(-c3ccc4ncc(C(=O)N5CCC(O)C5)n4c3)ccc2o1 (stereo not drawn) has a reported IC50 of < 10 µM

Nc1nc2cc(-c3ccc4ncc(C(=O)N(CCO)CCO)n4c3)ccc2o1 has a reported IC50 of < 10 µM

Nc1nc2cc(-c3ccc4ncc(N5CCNC(C(F)F)C5)nc4c3)ccc2o1 (stereo not drawn) has a reported IC50 of < 1 µM

Nc1nc2cc(-c3ccc4ncc(-c5cn[nH]c5)nc4c3)ccc2o1 has a reported IC50 of < 1 µM

Nc1nc2cc(-c3ccc4ncc(N5CC(N6CC[C@@H](O)C6)C5)nc4c3)ccc2o1 has a reported IC50 of < 10 µM
